System: Escherichia coli
test.name: Induction of DNA photocleavage activity in Escherichia coli pBR322 plasmid assessed as supercoiled DNA form at 10 uM after 90 mins irradiation at 2.5 mW/cm2 by gel electrophoresis
Provide the reported Activity of each item.

Worked examples follow.
{"chemical.smiles": "Cc1cc(C)c(-c2c3nc(c(-c4ccc(C(=O)NCCCCC(=O)N(CCCN)CCCCN)cc4)c4ccc([nH]4)c(-c4c(C)cc(C)cc4C)c4nc(c(-c5ccc(C(=O)NCCCCC(=O)N(CCCN)CCCCN)cc5)c5ccc2[nH]5)C=C4)C=C3)c(C)c1", "Activity": "71%"}
{"chemical.smiles": "Cc1cc(C)c(-c2c3nc(c(-c4ccc(C(=O)NCCCCC(=O)N(CCCN)CCCCNCCCN)cc4)c4ccc([nH]4)c(-c4c(C)cc(C)cc4C)c4nc(c(-c5ccc(C(=O)NCCCCC(=O)N(CCCN)CCCCNCCCN)cc5)c5ccc2[nH]5)C=C4)C=C3)c(C)c1", "Activity": "72%"}
{"chemical.smiles": "NCCCNCCCCN(CCCN)C(=O)CCCCNC(=O)c1ccc(-c2c3nc(c(-c4ccc(C(=O)NCCCCC(=O)N(CCCN)CCCCNCCCN)cc4)c4ccc([nH]4)c(-c4ccc(C(=O)NCCCCC(=O)N(CCCN)CCCCNCCCN)cc4)c4nc(c(-c5ccc(C(=O)NCCCCC(=O)N(CCCN)CCCCNCCCN)cc5)c5ccc2[nH]5)C=C4)C=C3)cc1", "Activity": "38%"}
{"chemical.smiles": "C=CC1=C(C)c2cc3[nH]c(cc4nc(cc5[nH]c(cc1n2)c(C)c5CCC(=O)NCCCCC(=O)N(CCCN)CCCCN)C(CCC(=O)NCCCCC(=O)N(CCCN)CCCCN)=C4C)c(C)c3C=C", "Activity": "12%"}
{"chemical.smiles": "NCCCCN(CCCN)C(=O)CCCCNC(=O)c1ccc(-c2c3nc(c(-c4ccc(C(=O)NCCCCC(=O)N(CCCN)CCCCN)cc4)c4ccc([nH]4)c(-c4ccc(C(=O)NCCCCC(=O)N(CCCN)CCCCN)cc4)c4nc(c(-c5ccc(C(=O)NCCCCC(=O)N(CCCN)CCCCN)cc5)c5ccc2[nH]5)C=C4)C=C3)cc1", "Activity": "43%"}

Next compound, Activity to be filled in.
Fill blank: measured Activity of the compound C=CC1=C(C)c2cc3[nH]c(cc4nc(cc5[nH]c(cc1n2)c(C)c5CCC(=O)NCCCCC(=O)N(CCCN)CCCCNCCCN)C(CCC(=O)NCCCCC(=O)N(CCCN)CCCCNCCCN)=C4C)c(C)c3C=C is ____.
1%
